Biological target: BRD4 bromo domain 1 [BRD4(1)] (Homo sapiens)
Construct: N-terminally His6-tagged BRD4(1) (amino acids 67-152)
Test: BRD4/acetylated peptide H4 binding assay (TR-FRET), BRD4 bromo domain 1
Details: inhibition of BRD4(1)/Ac-H4 peptide interaction
property.name: IC50 (nM)

P: C[C@@H]1C(=O)N(C)c2ccc(Nc3cccc(S(=O)(=O)N4CCN(C)CC4)c3)nc2N1C1CCN(C)CC1
Q: COCCN1c2nc(Nc3cccc(S(=O)(=O)N4CCN(C)CC4)c3)ccc2N(C)C(=O)C1C (racemic)
**Query** Please indicate which entry, P or Q , has the lower recorded IC50 value. Your choice should be expressed through its label.
**Result** P

----------
Molecular target: BRD4 bromo domain 1 [BRD4(1)] (Homo sapiens, UniProt O60885)
Construct: N-terminally His6-tagged BRD4(1) (amino acids 67-152)
Assay: BRD4/acetylated peptide H4 binding assay (TR-FRET), BRD4 bromo domain 1
Conditions: inhibition of BRD4(1)/Ac-H4 peptide interaction
pIC50: −log10 of the molar value.
property.name: pIC50

| compound | pIC50 |
| --- | --- |
| COCCN1c2nc(Nc3cccc(S(=O)(=O)N4CCOCC4)c3)ccc2N(C)C(=O)[C@H]1C (stereo in doubt) | 7.12 |
| C[C@@H]1C(=O)N(C)c2ccc(Nc3cccc(C(=O)N(C)C)c3)cc2N1C1CCNCC1 | 6.91 |

a: C[C@@H]1C(=O)N(C)c2ccc(Nc3cccc(C(=O)NCCN4CCN(C)CC4)c3)nc2N1C1CCCCC1
b: C[C@@H]1C(=O)N(C)c2ccc(Nc3cccc(C(=O)N4CCN(C)CC4)c3)nc2N1C1CCN(C(=O)OC(C)(C)C)CC1
c: C[C@@H]1C(=O)N(C)c2ccc(Nc3cccc(C(=O)NC4CCN(C)CC4)c3)nc2N1C1CCC(C)(C)CC1
**Query** Ordering: ascending pIC50. Reply with the labels, ordered as the question asks.
**Result** c, a, b
(c: 6.30, a: 6.57, b: 6.82)

1: COc1ccc(S(=O)(=O)N2CC3(COC3)C2)cc1Nc1ccc2c(n1)N(C1CCOCC1)[C@H](C)C(=O)N2C
2: C[C@@H]1C(=O)N(C)c2ccc(N(C)c3cccc(S(=O)(=O)N(C)C)c3)cc2N1C1CCN(C(=O)OC(C)(C)C)CC1
**Query** // pick min by pIC50: 1 , 2 Your answer should be the label attached to the chosen record.
**Result** 2

P: C[C@@H]1C(=O)N(C)c2ccc(Nc3cccc(S(=O)(=O)NC4CCN(C)CC4)c3)nc2N1C1CCOCC1
Q: COc1ccc(Nc2ccc3c(n2)N(C2CCOCC2)[C@H](C)C(=O)N3C)cc1C(=O)NC1CCN(C)CC1
**Query** Kindly compare P with Q and tell me which has the lower pIC50 figure. Kindly give the label for the entry you pick.
**Result** Q

----------
Target: BRD4 bromo domain 1 [BRD4(1)] (Homo sapiens)
Construct: N-terminally His6-tagged BRD4(1) (amino acids 67-152)
Assay: BRD4/acetylated peptide H4 binding assay (TR-FRET), BRD4 bromo domain 1
Conditions: inhibition of BRD4(1)/Ac-H4 peptide interaction
property.name: IC50 (nM)

| compound | IC50 [nM] |
| --- | --- |
| C[C@@H]1C(=O)N(C)c2ccc(Nc3cccc(S(=O)(=O)NC4CCN(C)CC4)c3)nc2N1C1CCN(C(=O)OC(C)(C)C)CC1 [Example 57] | 114 |
| CC(C)N1CCN(C(=O)c2cccc(Nc3ccc4c(n3)N(Cc3ccccc3)[C@H](C)C(=O)N4C)c2)CC1 [Example 76] | 143 |
| COc1ccc(C(=O)N[C@H]2CC[C@H](N3CCN(CC4CC4)CC3)CC2)cc1Nc1ccc2c(n1)N(C1CCOCC1)[C@H](C)C(=O)N2C [Example 18] | 149 |
